experiment: Cytotoxicity in HFF cells (CellTiter-Glo), concurrent with HCMV assay; type: cell-based; conditions: human
Documented CC50 across a set of compounds

[[record]]
compound = "CC(C)C(=O)OCC1=C[C@@H](O)[C@H](n2ccc(N)nc2=O)O1"
attribute_measured = "CC50"
result = "> 50 µM"


INPUT: Form field: reported CC50 of Nc1ccn([C@@H]2OC(CO)=C[C@H]2O)c(=O)n1 [ddhC, 3′-Deoxy-3′,4′-didehydro-cytidine, reference compound]
OUTPUT: > 50 µM

INPUT: Form field: reported CC50 of CC(C)C(=O)OCC1=C[C@@H](O)[C@H](n2ccc(NO)nc2=O)O1
OUTPUT: > 50 µM

###

assay: Cytotoxicity in Akata cells (CTG), concurrent with EBV assay; format: cell-based; conditions: human, Table 1
Attribute Measured: CC50 at 72 h

INPUT: Form field: reported CC50 at 72 h of CC(C)OC(=O)[C@H](C)N[P@](=O)(OCC1=C[C@@H](O)[C@H](n2ccc(N)nc2=O)O1)Oc1ccccc1 [Compound 21]
OUTPUT: > 50 µM

###

Documented CC50 at 72 h across a set of molecules
test: Cytotoxicity in Akata cells (CTG), concurrent with EBV assay; format: cell-based; conditions: human, Akata cells (without virus induction), Table 1

Example entries begin here.
[[record]]
molecule = "Nc1ccn(C[C@@H](CO)OCP(=O)(O)O)c(=O)n1 [Cidofovir, cidofovir, reference compound]"
attribute_measured = "CC50 at 72 h"
result = "> 100 µM"

[[record]]
molecule = "CC(C)C(=O)OCC1=C[C@@H](O)[C@H](n2ccc(NO)nc2=O)O1"
attribute_measured = "CC50 at 72 h"
result = "> 50 µM"

[[record]]
molecule = "CC(C)C(=O)OCC1=C[C@@H](O)[C@H](n2ccc(N)nc2=O)O1"
attribute_measured = "CC50 at 72 h"
result = "> 50 µM"


Next molecule, CC50 at 72 h to be filled in.
INPUT: Form field: reported CC50 at 72 h of Nc1ccn([C@@H]2OC(CO)=C[C@H]2O)c(=O)n1 [ddhC, 3′-Deoxy-3′,4′-didehydro-cytidine, reference compound]
OUTPUT: > 50 µM

###

assay: Cytotoxicity in HFF cells (CellTiter-Glo), concurrent with HCMV assay; assay type: cell-based; conditions: human; HFF cells; Table 1; read-out: HCMV CC50
Attribute Measured: CC50

INPUT: Form field: reported CC50 of Nc1nc(O)c2ncn(COC(CO)CO)c2n1 [Ganciclovir, ganciclovir, reference compound]
OUTPUT: > 150 µM
